targetOrSystem: T1, human glypican-3 (GPC3) (human, UniProt P51654 25-554)
T1 construct: Endogenous on JHH-7, JHH-5, HepG2 and NCI-H446 tumour cells, or transiently expressed on CHO-S cells from a pTT5 plasmid; also called hGPC3; huGPC3
assayNotes: flow cytometry on JHH-7 cells (GPC3-high);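 further: antibody binding at 4 °C for 24 h, detected with anti-human AF647 secondary, geometric mean fluorescence of live cells versus antibody concentration, fitted as specific binding with Hill slope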
experimentalEndpoint: Kd (nM)

binder	measurementUnit	observedResult
H18L6_LC_N33T mAb, v40214 (antibody, human IgG1, kappa, V domains shown, M3-H18L6 chains with the stated light chain point mutation, IgG1/kappa) VH: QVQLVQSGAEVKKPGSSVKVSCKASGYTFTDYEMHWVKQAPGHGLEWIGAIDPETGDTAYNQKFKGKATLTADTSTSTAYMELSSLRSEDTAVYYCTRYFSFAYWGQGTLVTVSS VL: EIVLTQSPATLSLSPGERATISCRSSQSLRHSTGNTYLQWYQQKPGQAPRLLIYKVSNRFSGVPARFSGSGSGTDFTLTISSLEPEDFAVYFCYQSKHVPYTFGGGTKVEIKR	nM	0.75
